Recorded values, source patent US20180127503A1.

- Study system: T1, human ROR2 expressed on the cell surface (human, UniProt Q01974 34-943)
- T1 construct: Endogenous ROR2 of human tumour cell lines; also called cell surface ROR2; ROR2 on tumour cell lines
- T1 sequence (Q01974 34-943 limits assumed): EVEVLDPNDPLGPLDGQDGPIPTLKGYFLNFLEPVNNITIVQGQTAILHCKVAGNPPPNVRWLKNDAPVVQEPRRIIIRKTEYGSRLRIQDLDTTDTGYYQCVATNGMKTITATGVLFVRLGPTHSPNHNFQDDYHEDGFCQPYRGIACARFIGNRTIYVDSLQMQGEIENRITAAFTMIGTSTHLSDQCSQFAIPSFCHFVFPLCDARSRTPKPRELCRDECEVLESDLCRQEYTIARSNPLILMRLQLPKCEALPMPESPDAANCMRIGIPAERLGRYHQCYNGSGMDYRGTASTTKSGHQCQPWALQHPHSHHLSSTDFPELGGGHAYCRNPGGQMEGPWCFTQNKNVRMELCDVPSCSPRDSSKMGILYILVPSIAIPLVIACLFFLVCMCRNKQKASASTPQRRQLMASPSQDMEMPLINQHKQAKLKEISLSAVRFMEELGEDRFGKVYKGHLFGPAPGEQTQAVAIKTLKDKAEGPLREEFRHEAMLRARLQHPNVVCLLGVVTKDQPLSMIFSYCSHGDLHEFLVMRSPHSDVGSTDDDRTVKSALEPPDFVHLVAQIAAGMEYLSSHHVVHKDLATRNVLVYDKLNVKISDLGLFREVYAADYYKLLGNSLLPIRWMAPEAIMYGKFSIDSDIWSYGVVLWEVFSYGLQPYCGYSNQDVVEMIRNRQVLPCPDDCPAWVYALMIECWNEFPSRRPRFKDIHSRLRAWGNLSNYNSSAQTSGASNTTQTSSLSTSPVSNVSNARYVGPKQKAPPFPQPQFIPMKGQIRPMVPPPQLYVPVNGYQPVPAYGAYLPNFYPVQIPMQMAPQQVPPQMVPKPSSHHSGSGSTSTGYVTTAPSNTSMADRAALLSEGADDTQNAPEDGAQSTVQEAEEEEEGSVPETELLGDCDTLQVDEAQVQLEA
- Protocol: flow cytometry, NCI-H2052 cells (mesothelioma)
- Set-up: reference not given here
Catalogue of binders with associated binding intensity
Please respond with just the number, no unit label.

Binder | binding intensity
ROR2-90 full length human IgG1 antibody (antibody, V domains shown, also called clone #90; antibody #90) VH: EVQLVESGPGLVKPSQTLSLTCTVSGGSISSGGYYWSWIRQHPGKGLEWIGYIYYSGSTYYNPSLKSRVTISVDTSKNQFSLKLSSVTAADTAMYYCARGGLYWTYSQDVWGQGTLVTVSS VL: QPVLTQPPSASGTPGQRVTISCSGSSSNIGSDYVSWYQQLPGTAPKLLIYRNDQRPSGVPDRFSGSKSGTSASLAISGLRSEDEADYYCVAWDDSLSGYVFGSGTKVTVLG | 101
ROR2-240 full length human IgG1 antibody (antibody, V domains shown, also called clone #240 IgG1) VH: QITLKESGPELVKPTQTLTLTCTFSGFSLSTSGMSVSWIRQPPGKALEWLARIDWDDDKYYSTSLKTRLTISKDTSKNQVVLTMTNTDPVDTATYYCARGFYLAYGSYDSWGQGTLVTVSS VL: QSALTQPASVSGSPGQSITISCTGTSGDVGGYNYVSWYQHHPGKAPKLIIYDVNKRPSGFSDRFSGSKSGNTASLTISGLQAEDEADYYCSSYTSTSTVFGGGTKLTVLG | 8
ROR2-241 full length human IgG1 antibody (antibody, V domains shown) VH: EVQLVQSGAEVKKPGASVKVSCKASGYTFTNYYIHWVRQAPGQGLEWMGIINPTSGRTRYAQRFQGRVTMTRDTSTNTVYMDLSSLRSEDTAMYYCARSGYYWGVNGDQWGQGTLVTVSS VL: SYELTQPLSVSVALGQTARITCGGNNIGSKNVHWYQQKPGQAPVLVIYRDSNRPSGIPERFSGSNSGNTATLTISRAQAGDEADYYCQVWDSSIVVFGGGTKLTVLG | 43
ROR2-23 full length human IgG1 antibody (antibody, V domains shown, The light chain of clone 023 is labelled kappa; also called clone #23; clone #023 IgG1) VH: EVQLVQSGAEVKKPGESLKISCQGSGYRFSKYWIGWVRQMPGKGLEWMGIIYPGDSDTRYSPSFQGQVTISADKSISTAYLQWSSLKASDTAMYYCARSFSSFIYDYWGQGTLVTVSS VL: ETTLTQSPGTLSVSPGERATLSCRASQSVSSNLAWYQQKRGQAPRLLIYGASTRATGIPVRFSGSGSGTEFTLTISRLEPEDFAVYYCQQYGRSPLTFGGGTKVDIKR | 65

Now turn to the next binder.
Briefly, binding intensity measured for ROR2-27 full length human IgG1 antibody (antibody, V domains shown, also called clone #27; clone #027 IgG1) VH: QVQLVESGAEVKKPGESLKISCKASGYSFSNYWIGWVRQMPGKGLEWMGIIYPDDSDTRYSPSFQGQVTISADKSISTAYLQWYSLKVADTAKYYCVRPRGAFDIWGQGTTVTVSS VL: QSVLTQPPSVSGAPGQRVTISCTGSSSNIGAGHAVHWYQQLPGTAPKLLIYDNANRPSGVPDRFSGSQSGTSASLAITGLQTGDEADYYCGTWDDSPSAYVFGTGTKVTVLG : 46
